# tested on: GSK3β (Homo sapiens (Human), UniProt P49841)
# Sequence (P49841 whole entry): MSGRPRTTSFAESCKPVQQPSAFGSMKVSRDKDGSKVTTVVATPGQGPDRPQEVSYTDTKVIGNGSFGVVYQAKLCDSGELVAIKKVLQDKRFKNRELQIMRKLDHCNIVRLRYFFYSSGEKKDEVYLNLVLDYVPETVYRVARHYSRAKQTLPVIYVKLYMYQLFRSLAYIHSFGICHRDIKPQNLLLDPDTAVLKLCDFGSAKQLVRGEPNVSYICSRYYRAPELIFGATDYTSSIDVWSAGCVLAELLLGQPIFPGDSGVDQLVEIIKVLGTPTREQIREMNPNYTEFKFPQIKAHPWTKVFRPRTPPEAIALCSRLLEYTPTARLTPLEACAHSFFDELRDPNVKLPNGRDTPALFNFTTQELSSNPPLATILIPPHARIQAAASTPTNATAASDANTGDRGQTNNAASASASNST
# method summary: biochemical
So I've got a bunch of molecules here, and I need their Kd values.

Query: Supply recorded Kd for Cc1[nH]nc2c1C(c1cccc(F)c1)C1=C(CC(C)(C)CC1=O)N2 (centres unmarked) [Compound 11] here.
Response: 1 to 5 µM

Query: Supply recorded Kd for COc1cccc(C2C3=C(CC(C)(C)CC3=O)Nc3n[nH]c(C)c32)c1 (centres unmarked) [Compound 23] here.
Response: 5 to 30 µM

Query: Supply recorded Kd for Cc1[nH]nc2c1C(c1ccc(Br)cn1)C1=C(CC(C)(C)CC1=O)N2 (centres unmarked) [Compound 39] here.
Response: 5 to 30 µM

Query: Supply recorded Kd for Cc1[nH]nc2c1C(c1ccsc1)C1=C(CC(C)(C)CC1=O)N2 (centres unmarked) [Compound 8] here.
Response: 0.101 to 1 µM

Query: Supply recorded Kd for Cc1[nH]nc2c1C(c1cccs1)C1=C(CC(C)(C)CC1=O)N2 (racemic) [Compound 5] here.
Response: 0.101 to 1 µM

Query: Supply recorded Kd for Cc1[nH]nc2c1C(c1ccn[nH]1)C1=C(CC(C)(C)CC1=O)N2 (centres unmarked) [Compound 40] here.
Response: 5 to 30 µM

Query: Supply recorded Kd for Cc1[nH]nc2c1C(c1cccc(Cl)c1)C1=C(CC(C)(C)CC1=O)N2 (centres unmarked) [Compound 14] here.
Response: 0.101 to 1 µM

Query: Supply recorded Kd for Cc1[nH]nc2c1C(c1ccccn1)C1=C(CC(C)(C)CC1=O)N2 (centres unmarked) [Compound 36] here.
Response: 0.101 to 1 µM

* * *

# tested on: UniProt:P49841
# particulars: read-out: IC50 (μM), GSK3β
experimental endpoint: IC50 (µM)
Lab book: enter the figure in µM, no units written.

Query: Supply recorded IC50 for `COc1ccccc1[C@@H]1C2=C(CC(C)(C)CC2=O)Nc2n[nH]c(C)c21` here.
Response: 0.061

* * *

# tested on: CDK5/p25 (Homo sapiens (Human))
# Sequence (Q00535 whole entry, species assumed): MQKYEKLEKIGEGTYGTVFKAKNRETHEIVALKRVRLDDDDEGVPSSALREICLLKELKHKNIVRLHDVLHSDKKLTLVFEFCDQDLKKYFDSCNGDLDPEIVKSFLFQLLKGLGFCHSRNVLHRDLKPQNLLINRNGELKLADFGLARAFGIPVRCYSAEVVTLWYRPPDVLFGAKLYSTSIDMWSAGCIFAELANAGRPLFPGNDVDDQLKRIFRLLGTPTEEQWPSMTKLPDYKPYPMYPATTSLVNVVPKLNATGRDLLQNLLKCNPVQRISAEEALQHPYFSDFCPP
# Sequence (Q15078 99-307 partner, species assumed): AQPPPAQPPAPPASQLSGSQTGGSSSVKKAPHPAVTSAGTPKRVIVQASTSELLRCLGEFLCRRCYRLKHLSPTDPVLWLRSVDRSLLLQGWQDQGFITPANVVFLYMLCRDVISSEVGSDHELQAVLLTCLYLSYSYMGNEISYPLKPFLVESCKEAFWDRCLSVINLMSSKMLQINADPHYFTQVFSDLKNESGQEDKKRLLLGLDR
So I've got a bunch of compounds here, and I need their ADP Glo Assay GSK3β vs CDK5 fold selectivity values.
Lab book: enter the figure in X, no units written.

Query: Supply recorded ADP Glo Assay GSK3β vs CDK5 fold selectivity for Cc1[nH]nc2c1C(c1cccc3nonc13)C1=C(CC(C)(C)CC1=O)N2 (stereo not drawn) here.
Response: 51

Query: Supply recorded ADP Glo Assay GSK3β vs CDK5 fold selectivity for Cc1[nH]nc2c1C(c1cccc(C(F)(F)F)c1)C1=C(CC(C)(C)CC1=O)N2 (stereo not drawn) here.
Response: 81

Query: Supply recorded ADP Glo Assay GSK3β vs CDK5 fold selectivity for Cc1[nH]nc2c1C(C)C1=C(CC(C)(C)CC1=O)N2 (stereo not drawn) here.
Response: 23

Query: Supply recorded ADP Glo Assay GSK3β vs CDK5 fold selectivity for CC1(C)CC(=O)C2=C(C1)Nc1n[nH]c(C(F)(F)F)c1C2c1ccccc1C(F)(F)F (stereo not drawn) here.
Response: 165

Query: Supply recorded ADP Glo Assay GSK3β vs CDK5 fold selectivity for Cc1[nH]nc2c1C(C)(c1ccccc1)C1=C(CC(C)(C)CC1=O)N2 (stereo not drawn) here.
Response: 47

Query: Supply recorded ADP Glo Assay GSK3β vs CDK5 fold selectivity for CSc1ccccc1C1C2=C(CC(C)(C)CC2=O)Nc2n[nH]c(C)c21 (stereo not drawn) here.
Response: 124

Query: Supply recorded ADP Glo Assay GSK3β vs CDK5 fold selectivity for `Cc1[nH]nc2c1[C@@H](c1ccccc1C#N)C1=C(CC(C)(C)CC1=O)N2` here.
Response: 30

Query: Supply recorded ADP Glo Assay GSK3β vs CDK5 fold selectivity for Cc1[nH]nc2c1C(c1ccccc1Cl)C1=C(CC(C)(C)CC1=O)N2 (stereo not drawn) here.
Response: 6

Query: Supply recorded ADP Glo Assay GSK3β vs CDK5 fold selectivity for Cc1[nH]nc2c1C(c1ccccc1C(F)(F)F)C1=C(CC(C)(C)CC1=O)N2 (racemic) here.
Response: 34

Query: Supply recorded ADP Glo Assay GSK3β vs CDK5 fold selectivity for CC1(C)CC(=O)C2=C(C1)Nc1n[nH]c(C(F)(F)F)c1C2c1cccc(F)c1C(F)(F)F (stereo not drawn) here.
Response: 276

Query: Supply recorded ADP Glo Assay GSK3β vs CDK5 fold selectivity for COc1ccccc1C1C2=C(CC(C)(C)CC2=O)Nc2n[nH]cc21 (stereo not drawn) here.
Response: 34

Query: Supply recorded ADP Glo Assay GSK3β vs CDK5 fold selectivity for CC1(C)CC(=O)C2=C(C1)Nc1n[nH]c(C(F)(F)F)c1C2c1ccc(F)cc1C(F)(F)F (stereo not drawn) here.
Response: 130

Query: Supply recorded ADP Glo Assay GSK3β vs CDK5 fold selectivity for Cc1[nH]nc2c1C(c1cccc(F)c1)C1=C(CC(C)(C)CC1=O)N2 (stereo not drawn) here.
Response: 61

Query: Supply recorded ADP Glo Assay GSK3β vs CDK5 fold selectivity for CC1(C)CC(=O)C2=C(C1)Nc1n[nH]c(C(F)(F)F)c1C2c1ccccc1 (stereo not drawn) here.
Response: 615

Query: Supply recorded ADP Glo Assay GSK3β vs CDK5 fold selectivity for Cc1[nH]nc2c1[C@H](c1ccccc1C(F)(F)F)C1=C(CC(C)(C)CC1=O)N2 (racemic) here.
Response: 12

Query: Supply recorded ADP Glo Assay GSK3β vs CDK5 fold selectivity for Cc1[nH]nc2c1C(c1ccccc1Br)C1=C(CC(C)(C)CC1=O)N2 (stereo not drawn) here.
Response: 14

Query: Supply recorded ADP Glo Assay GSK3β vs CDK5 fold selectivity for Cc1ccccc1C1C2=C(CC(C)(C)CC2=O)Nc2n[nH]c(C)c21 (stereo not drawn) here.
Response: 14

Query: Supply recorded ADP Glo Assay GSK3β vs CDK5 fold selectivity for Cc1[nH]nc2c1C(c1ccc(F)cc1Cl)C1=C(CC(C)(C)CC1=O)N2 (stereo not drawn) here.
Response: 7
